Reported z-score values for a set of compounds
# PROTOCOL: basal S. cerevisiae growth modulation, no modifier, primary screen, OD600, strain BY4716, 24 h, basal condition (AID 1173)
# EXPERIMENTAL CONTEXT: OD600, 24 h, higher = more signal, called active from +8 up or from −8 down
Calls of active or inactive are those of the source.

Recorded z-score, per entry:
[[record]]
compound = "CNS(=O)(=O)c1ccc(C)cc1"
result = "-1.13 (inactive)"

[[record]]
compound = "COc1cc2c(cc1O)C(C1CC1)N(Cc1sc3ccccc3c1Cl)CC2 (centres undefined)"
result = "-18.3 (active)"

[[record]]
compound = "COc1ccc([Si](C)(C)[C@H]2[C@H](CC(=O)N3Cc4ccccc4C[C@H]3CO)O[C@@]3(C(=O)N(Cc4cccc(N5CCC5=O)c4)c4ccccc43)[C@@H]2C)cc1"
result = "0.472 (inactive)"


Moving on to another compound below.
Task item: # get_value(readout='z-score', item= O=C(CS)NCCCCCCNC(=O)[C@@H]1C[C@@H]2C(=O)N[C@@H](Cc3ccccc3)C(=O)N2[C@@H]1c1cccc(OCCO)c1 )
Reply: 0.49 (inactive)

---

# PROTOCOL: S. cerevisiae growth modulation with rapamycin, primary screen, strain BY4716, OD600, 96 h (AID 1091); further: test concentration not given here
# EXPERIMENTAL CONTEXT: higher = more signal, called active from +8 up or from −8 down
MEASURED QUANTITY: z-score
Kindly provide the number alone.

Guide cases for z-score, answers given:
[[record]]
compound = "COC(=O)C(CC#Cc1ccc2c(c1)[C@]1(C(=O)N2)[C@H](c2ccc(OCCO)cc2)N2[C@H](c3ccccc3)[C@H](c3ccccc3)OC(=O)[C@H]2[C@@H]1C(=O)Nc1nc2ccccc2s1)C(=O)OC"
numeric_readout = 3.14

[[record]]
compound = "CCN(CC)c1ccc(N2CC=CC34O[C@@H]5C=CCCOC(=O)C5[C@H]3C(=O)N(CCCCCCO)[C@@H]4C2=O)cc1 (stereo partly specified)"
numeric_readout = -1.74

[[record]]
compound = "O=C1C[C@]2(c3ccc([N+](=O)[O-])cc3)C(=O)N(CC(F)(F)F)c3cc(CO)ccc3[C@H]2N1C1CCCCC1"
numeric_readout = -1.03

[[record]]
compound = "C=C[C@H](CO)NS(=O)(=O)c1ccc(Br)cc1"
numeric_readout = -0.135

[[record]]
compound = "C=CCC(OC(C)=O)[C@@H]1[C@@H](N(Cc2ccc(-c3cccc(C(F)(F)F)c3)o2)C(=O)c2ccc(C)cc2)c2cc(OCCCO)ccc2N1C(=O)Cc1ccc2ccccc2c1 (stereo partly specified)"
numeric_readout = 0.303


Turning now to a further compound:
Task item: What z-score value was documented for this compound, C=CCC(OC(C)=O)[C@@H]1[C@@H](N(Cc2cccc3ccccc23)C(=O)c2ccc(-c3ccccc3)cc2)c2cc(OCCCO)ccc2N1C(=O)c1ccc2ccccc2c1 (stereo partly specified) ?
Reply: 0.009

---

# PROTOCOL: E. coli growth modulation, two-sided OD650, primary screen, E. coli filamentation project, strain DRC41, 24 h (AID 1093);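 further: MC1000 strain lacking acrAB efflux and sulA so SOS filamentation is blocked; test concentration not given here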
# EXPERIMENTAL CONTEXT: OD650, 24 h, higher = more signal, called active from +8 up or from −8 down
z-score: recorded values
I'd appreciate a reply containing only the number, no unit.

Use these answered entries as a reference point.
[[record]]
compound = "C=CCOC(=O)[C@H]1[C@@H]2C(=O)O[C@@H](c3ccccc3)[C@@H](c3ccccc3)N2[C@@H](c2ccc(OCCOC(=O)[C@H]3C[C@H]4C(=O)N[C@@H](CCCCNC(C)=O)C(=O)N4[C@H]3c3ccc(O)cc3)cc2)[C@]12C(=O)Nc1ccc(I)cc12"
numeric_readout = -2.07

[[record]]
compound = "COC(=O)C(CC#Cc1ccc2c(c1)[C@]1(C(=O)N2)[C@H](c2ccc(OCCO)cc2)N2[C@H](c3ccccc3)[C@H](c3ccccc3)OC(=O)[C@H]2[C@@H]1C(=O)N1CCc2cc(OC)c(OC)cc2C1)C(=O)OC"
numeric_readout = 0.49

[[record]]
compound = "CN1C(=O)C2C=CC(C(O)c3ccc([N+](=O)[O-])cc3)N(N3CCCCC3)C2C1=O (stereo unspecified)"
numeric_readout = -1.74

[[record]]
compound = "C=CC[C@@]12N=C(c3ccc(OCCCO)cc3)O[C@@H]1c1ccccc1N(C)C2=O"
numeric_readout = 0.671


Task item: I have this compound here, COc1cc2c(cc1OC)CN(C(=O)[C@@H]1[C@H]3C(=O)O[C@H](c4ccccc4)[C@H](c4ccccc4)N3[C@H](c3ccccc3OCCO)[C@@]13C(=O)Nc1ccc(C#CCCO)cc13)CC2 , and I need its recorded z-score.
Reply: 1.15

Task item: Now consider COC(=O)C(CC#Cc1ccc2c(c1)[C@]1(C(=O)N2)[C@H](c2ccc(OCCO)cc2)N2[C@H](c3ccccc3)[C@H](c3ccccc3)OC(=O)[C@H]2[C@@H]1C(=O)Nc1nc2ccccc2s1)C(=O)OC and answer again.
Reply: 2.13
